These measurements were taken from patent US5502035A.

Target: LHRH (Rattus norvegicus, UniProt P30969)
Construct: endogenous in cells; host or cells: rat pituitary cells (own knowledge of the cited Haviv 1989 method)
Sequence (P30969 1-327): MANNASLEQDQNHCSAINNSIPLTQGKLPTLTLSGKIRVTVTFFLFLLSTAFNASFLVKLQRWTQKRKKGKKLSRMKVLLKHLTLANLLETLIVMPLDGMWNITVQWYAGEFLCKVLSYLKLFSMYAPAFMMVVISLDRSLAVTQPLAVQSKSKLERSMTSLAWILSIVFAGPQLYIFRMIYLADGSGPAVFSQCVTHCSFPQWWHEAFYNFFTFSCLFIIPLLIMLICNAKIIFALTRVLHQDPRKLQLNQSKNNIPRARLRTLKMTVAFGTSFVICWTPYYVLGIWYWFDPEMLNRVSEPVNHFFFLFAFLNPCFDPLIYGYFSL
Experiment: in vitro test for LHRH antagonist potency (pA2)
Format: cell-based
Conditions: negative logarithm of the antagonist concentration required to shift the response curve produced by the agonist leuprolide to two-fold higher concentration
Non-standard residues stand in square brackets, D forms with d. Residues, ends and D or L forms follow the SMILES beside them. Groups on a side chain read outwards from the residue. *: point of attachment. Shikimoyl = O=C(C1=C[C@@H](O)[C@@H](O)[C@H](O)C1)*; dPhe(4-Cl) = N[C@H](Cc1ccc(Cl)cc1)C(=O)O; d2Nal = N[C@H](Cc1ccc2ccccc2c1)C(=O)O; Lys(iPr) = CC(C)NCCCC[C@H](N)C(=O)O; NMeY = CN[C@@H](Cc1ccc(O)cc1)C(=O)O; dCit = NC(=O)NCCC[C@@H](N)C(=O)O; d3Pal = N[C@H](Cc1cccnc1)C(=O)O; Nicotinoyl = O=C(c1cccnc1)*; Picolinoyl = O=C(c1ccccn1)*; 2Furoyl = O=C(c1ccco1)*; Ava = NCCCCC(=O)O; azaGly = NNC(=O)O
Observable: Kb (nM)
Expressed in nM, but write only the number.

Consider the following illustrative entries.
Molecule	Value Units	Kb
CC(C)C[C@H](NC(=O)[C@@H](CCCCNC(=O)c1cccnc1)NC(=O)[C@H](Cc1ccc(O)cc1)N(C)C(=O)[C@H](CO)NC(=O)[C@@H](Cc1cccnc1)NC(=O)[C@@H](Cc1ccc(Cl)cc1)NC(=O)[C@@H](Cc1ccc2ccccc2c1)NC(=O)CCCCNC(=O)C1=C[C@@H](O)[C@@H](O)[C@H](O)C1)C(=O)N[C@@H](CCCCNC(C)C)C(=O)N1CCC[C@H]1C(=O)N[C@H](C)C(N)=O [Example 6f] ({Shikimoyl-Ava}-[d2Nal][dPhe(4-Cl)][d3Pal]S[NMeY][dK](Nicotinoyl)L[Lys(iPr)]P[dA]-NH2)	nM	0.0257
CC(C)C[C@H](NC(=O)[C@@H](CCCNC(N)=O)NC(=O)[C@H](Cc1ccc(O)cc1)N(C)C(=O)[C@H](CO)NC(=O)[C@@H](Cc1cccnc1)NC(=O)[C@@H](Cc1ccc(Cl)cc1)NC(=O)[C@@H](Cc1ccc2ccccc2c1)NC(=O)c1cccnc1)C(=O)N[C@@H](CCCNC(=N)N)C(=O)N1CCC[C@H]1C(=O)N[C@H](C)C(N)=O [Example 78g] (Nicotinoyl-[d2Nal][dPhe(4-Cl)][d3Pal]S[NMeY][dCit]LRP[dA]-NH2)	nM	0.00708
CC(C)C[C@H](NC(=O)[C@@H](CCCCNC(=O)c1cccnc1)NC(=O)[C@H](Cc1ccc(O)cc1)N(C)C(=O)[C@H](CO)NC(=O)[C@@H](Cc1cccnc1)NC(=O)[C@@H](Cc1ccc(Cl)cc1)NC(=O)[C@@H](Cc1ccc2ccccc2c1)NC(=O)c1ccco1)C(=O)N[C@@H](CCCCNC(C)C)C(=O)N1CCC[C@H]1C(=O)N[C@H](C)C(N)=O [Example 72a] (2Furoyl-[d2Nal][dPhe(4-Cl)][d3Pal]S[NMeY][dK](Nicotinoyl)L[Lys(iPr)]P[dA]-NH2)	nM	0.01
CC(C)C[C@H](NC(=O)[C@@H](CCCCNC(=O)NNC(=O)c1cccnc1)NC(=O)[C@H](Cc1ccc(O)cc1)N(C)C(=O)[C@H](CO)NC(=O)[C@@H](Cc1cccnc1)NC(=O)[C@@H](Cc1ccc(Cl)cc1)NC(=O)[C@@H](Cc1ccc2ccccc2c1)NC(=O)NNC(=O)c1cccnc1)C(=O)N[C@@H](CCCCNC(C)C)C(=O)N1CCC[C@H]1C(=O)N[C@H](C)C(N)=O [Example 31] (Nicotinoyl-[azaGly][d2Nal][dPhe(4-Cl)][d3Pal]S[NMeY][dK]([azaGly-Nicotinoyl])L[Lys(iPr)]P[dA]-NH2)	nM	0.0195

Consider CC(C)C[C@H](NC(=O)[C@@H](CCCCNC(=O)c1cccnc1)NC(=O)[C@H](Cc1ccc(O)cc1)N(C)C(=O)[C@H](CO)NC(=O)[C@@H](Cc1cccnc1)NC(=O)[C@@H](Cc1ccc(Cl)cc1)NC(=O)[C@@H](Cc1ccc2ccccc2c1)NC(=O)CNC(=O)c1ccccn1)C(=O)N[C@@H](CCCCNC(C)C)C(=O)N1CCC[C@H]1C(=O)N[C@H](C)C(N)=O [Example 2e] (Picolinoyl-G[d2Nal][dPhe(4-Cl)][d3Pal]S[NMeY][dK](Nicotinoyl)L[Lys(iPr)]P[dA]-NH2; N-terminus assumed) . Its measured Kb is 0.02
